# Assayed system: Carnitine O-palmitoyltransferase 1, liver isoform (Homo sapiens, UniProt P50416)
# Sequence (P50416 whole entry): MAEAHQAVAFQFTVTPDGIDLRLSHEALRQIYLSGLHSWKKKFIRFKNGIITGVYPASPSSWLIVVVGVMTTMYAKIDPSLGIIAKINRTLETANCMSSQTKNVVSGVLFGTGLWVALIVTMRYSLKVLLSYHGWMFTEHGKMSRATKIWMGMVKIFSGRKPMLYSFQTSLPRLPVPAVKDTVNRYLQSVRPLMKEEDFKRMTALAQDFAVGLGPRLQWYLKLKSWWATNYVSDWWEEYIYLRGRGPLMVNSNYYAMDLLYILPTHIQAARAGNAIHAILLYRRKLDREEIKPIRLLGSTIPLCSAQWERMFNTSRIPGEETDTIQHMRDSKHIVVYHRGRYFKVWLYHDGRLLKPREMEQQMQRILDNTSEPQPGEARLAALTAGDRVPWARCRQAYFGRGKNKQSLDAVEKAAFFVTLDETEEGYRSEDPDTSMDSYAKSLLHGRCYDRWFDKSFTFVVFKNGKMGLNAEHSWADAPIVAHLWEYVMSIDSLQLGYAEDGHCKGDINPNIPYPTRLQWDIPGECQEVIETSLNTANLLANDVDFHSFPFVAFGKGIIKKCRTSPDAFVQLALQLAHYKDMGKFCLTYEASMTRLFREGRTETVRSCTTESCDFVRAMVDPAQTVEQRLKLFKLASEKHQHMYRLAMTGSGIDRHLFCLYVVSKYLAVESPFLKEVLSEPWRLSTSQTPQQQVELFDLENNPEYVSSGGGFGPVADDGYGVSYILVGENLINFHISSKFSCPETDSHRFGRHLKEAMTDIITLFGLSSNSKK
# Measurement protocol: SUPPLEMENTARY: Inhibition of Carnitine palmitoyltransferase 1, liver isoform
I'd appreciate it if you could supply pIC50 values for the items below.
On this scale, pIC50 is minus log10 of a concentration expressed in M (mol/L).

Request the reported pIC50 associated with O=C(Nc1ccc(C(=O)O)c(F)c1)c1ccc2c(c1)N(S(=O)(=O)c1cccc(Cl)c1)CCO2
6.68

// repeat for COc1ccc(Cl)cc1S(=O)(=O)N1CCOc2ccc(C(=O)Nc3ccc(CCC(=O)O)cc3)cc21 and report
6.76

// repeat for COc1ccc(Cl)cc1S(=O)(=O)c1c[nH]c2ccc(C(=O)Nc3ccccc3)cc12 and report
6.94

// repeat for CCN(CC)C(=O)c1cncc(-c2noc([C@H]3CCCCN3C(=O)COc3ccccc3)n2)c1 and report
6.66

// repeat for COc1ccc(Cl)cc1S(=O)(=O)N(C)c1cc(C(=O)Nc2ccc(C(=O)O)cc2)cc2c1OCO2 and report
6.88

====

# Assayed system: Carnitine O-palmitoyltransferase 1, liver isoform (Rattus norvegicus, UniProt P32198)
# Sequence (P32198 whole entry): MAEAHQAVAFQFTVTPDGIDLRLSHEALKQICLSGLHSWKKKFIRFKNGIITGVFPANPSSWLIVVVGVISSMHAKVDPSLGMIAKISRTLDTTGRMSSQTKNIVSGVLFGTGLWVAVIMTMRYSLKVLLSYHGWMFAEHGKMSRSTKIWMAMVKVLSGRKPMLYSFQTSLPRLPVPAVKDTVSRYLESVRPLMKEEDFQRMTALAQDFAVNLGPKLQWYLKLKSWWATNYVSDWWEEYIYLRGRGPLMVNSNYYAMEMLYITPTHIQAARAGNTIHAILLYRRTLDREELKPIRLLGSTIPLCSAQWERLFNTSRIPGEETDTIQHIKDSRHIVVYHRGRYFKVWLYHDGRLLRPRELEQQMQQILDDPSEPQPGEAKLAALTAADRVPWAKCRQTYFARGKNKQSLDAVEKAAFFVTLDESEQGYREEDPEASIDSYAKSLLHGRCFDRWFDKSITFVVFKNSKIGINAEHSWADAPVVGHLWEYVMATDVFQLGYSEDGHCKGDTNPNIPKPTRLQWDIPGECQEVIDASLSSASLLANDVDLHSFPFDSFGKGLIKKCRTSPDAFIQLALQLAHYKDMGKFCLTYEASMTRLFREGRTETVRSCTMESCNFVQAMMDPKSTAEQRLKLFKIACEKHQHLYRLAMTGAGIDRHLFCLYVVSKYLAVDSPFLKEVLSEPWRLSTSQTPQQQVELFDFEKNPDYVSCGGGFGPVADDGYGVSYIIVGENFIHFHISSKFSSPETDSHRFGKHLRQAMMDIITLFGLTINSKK
# Measurement protocol: SUPPLEMENTARY: Inhibition of Carnitine palmitoyltransferase 1, liver isoform
Assay readout: pIC50
On this scale, pIC50 is minus log10 of a concentration expressed in M (mol/L).

Request the reported pIC50 associated with Cc1cc(C(=O)Nc2ccc(-c3nnn[nH]3)cc2)nn1Cc1ccc(OC(F)F)cc1
6.03

// repeat for COCCN(c1cc(C(=O)Nc2ccc(CC(=O)O)cc2)cc2c1OCO2)S(=O)(=O)c1cc(Cl)ccc1OC and report
6.34

// repeat for COc1ccc(Cl)cc1S(=O)(=O)N1CC(C)c2ccc(C(=O)Nc3ccc(C(=O)O)c(Cl)c3)cc21 (stereo unspecified) and report
7.20

// repeat for Cn1cnc(Br)c1-c1noc([C@H]2CCCCN2C(=O)COc2ccccc2)n1 and report
6.60

// repeat for COc1ccc(-c2noc(C3C[S+]([O-])CCN3C(=O)COc3ccccc3)n2)cc1 (stereo unspecified) and report
6.61

// repeat for CN1CCN(C(=O)COc2ccccc2)[C@@H](c2nc(-c3ccc4c(c3)CC(=O)N4)no2)C1 and report
6.52
